molecular target: human adenosine A3 receptor (Homo sapiens (Human), UniProt P0DMS8); experiment: Intracellular cAMP levels (inhibition of forskolin-stimulated cAMP production); conditions: CHO cells expressing human adenosine A3 receptors, forskolin 10 μM
Sequence (P0DMS8 whole entry): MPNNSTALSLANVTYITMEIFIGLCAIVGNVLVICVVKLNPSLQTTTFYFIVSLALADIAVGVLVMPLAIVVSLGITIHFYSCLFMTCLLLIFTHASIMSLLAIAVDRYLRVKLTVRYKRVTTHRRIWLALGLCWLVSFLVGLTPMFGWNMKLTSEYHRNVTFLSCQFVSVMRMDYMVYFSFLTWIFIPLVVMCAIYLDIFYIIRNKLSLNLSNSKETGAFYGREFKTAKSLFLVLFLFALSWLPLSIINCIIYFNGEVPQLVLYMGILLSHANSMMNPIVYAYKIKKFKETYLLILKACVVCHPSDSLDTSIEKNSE
experimental-endpoint: EC50 (nM)

P: CNC(=O)C12C[C@@H]1[C@@H](n1cnc3c(NCC4CC4)cc(Cl)nc31)[C@H](O)[C@@H]2O (stereo in doubt)
Q: O[C@@H]1[C@H](O)[C@@H]2C[C@@H]2[C@H]1n1cnc2c(NCC(F)F)cc(Cl)nc21
R: O[C@@H]1[C@H](O)[C@@H]2C[C@@H]2[C@H]1n1cnc2c(NCC(F)F)nc(C#CC3CC3)nc21
S: CCNc1cc(Cl)nc2c1ncn2[C@H]1[C@H](O)[C@H](O)[C@]2(C(=O)NC)C[C@H]12
## Input Put the above compounds in order of rising EC50, beginning with the smallest. State the ranking by listing the labels in the requested order.
## Output S, P, R, Q
(S: 0.11 nM, P: 0.22 nM, R: 1.8 nM, Q: 8.6 nM)

* * *

# maps each entry to its EC50
biological target: ADORA3 (Homo sapiens (Human), UniProt P0DMS8); assay: Intracellular calcium release assay (FLIPR); conditions: CHO-K1 cells, Fluo-4, top concentration 10 μM; read-out: Cell Calcium Assay EC50

Worked cases, answers included:
[
  {
    "compound": "Cc1c(Cl)nc2c(ncn2[C@H]2[C@H](O)[C@H](O)[C@@H]3C[C@@H]32)c1NCC(F)F [Compound 60]",
    "value-reported": "> 10 µM"
  },
  {
    "compound": "Cc1cc(COc2ccc(Cl)cc2CNc2cc(Cl)nc3c2ncn3[C@H]2[C@H](O)[C@H](O)[C@@H]3C[C@@H]32)on1 [Compound 75]",
    "value-reported": "≥ 10 µM"
  }
]

## Input Sample O[C@@H]1[C@H](O)[C@@H]2C[C@@H]2[C@H]1n1cnc2c(NCC(F)F)nc(C#CC3CC3)nc21 [Compound 38] — what was its EC50?
## Output 0.0145 µM

## Input Suppose we examine the compound CCNc1nc(Cl)nc2c1ncn2[C@H]1[C@H](O)[C@H](O)[C@]2(C(F)F)C[C@H]12 [Compound 53] ; what EC50 value has been reported?
## Output ≥ 10 µM

## Input Which EC50 value belongs to CCNc1cc(C#CC2CC2)nc2c1ncn2[C@H]1[C@H](O)[C@H](O)[C@@H]2C[C@@H]21 [Compound 46] ?
## Output ≥ 10 µM

* * *

target: human adenosine A3 receptor (Homo sapiens (Human), UniProt P0DMS8)
pKi: −log10 of the molar value.
experimental-endpoint: pKi

[
  {
    "record-smiles": "CNC(=O)[C@@]12C[C@@H]1[C@@H](n1cnc3c(N)cc(Cl)nc31)[C@H](O)[C@@H]2O",
    "value-reported": 8.62
  }
]

A: Nc1c(OCc2cccc(Cl)c2)c(Cl)nc2c1ncn2[C@H]1[C@H](O)[C@H](O)[C@@H]2C[C@@H]21
B: CNC(=O)[C@@]12C[C@@H]1[C@@H](n1cnc3c(NCC(C)C)cc(Cl)nc31)[C@H](O)[C@@H]2O
C: CNC(=O)[C@@]12C[C@@H]1[C@@H](n1cnc3c(NCCO)cc(Cl)nc31)[C@H](O)[C@@H]2O
## Input Ordering criterion: pKi; begin with the maximum. Would you mind listing the labels in the order requested?
## Output B, C, A
(B: 8.79, C: 8.29, A: 7.57)

* * *

target: human adenosine A3 receptor (Homo sapiens (Human), UniProt P0DMS8); assay: Intracellular cAMP levels (inhibition of forskolin-stimulated cAMP production); settings: CHO cells expressing human adenosine A3 receptors, forskolin 10 μM
experimental-endpoint: EC50 (nM)

[
  {
    "compound": "CCNc1cc(C#N)nc2c1ncn2[C@H]1[C@H](O)[C@H](O)[C@]2(C(=O)NC)C[C@H]12 [Compound 70]",
    "target-or-system": "human adenosine A3 receptor (Homo sapiens (Human), UniProt P0DMS8)",
    "value-reported": 0.1
  }
]

I: CCNc1c(C#N)c(Cl)nc2c1ncn2[C@H]1[C@H](O)[C@H](O)[C@@H]2C[C@@H]21 [Compound 93]
II: CNC(=O)[C@@]12C[C@@H]1[C@@H](n1cnc3c(NCc4cc(Cl)ccc4OCc4cc(C)no4)cc(Cl)nc31)[C@H](O)[C@@H]2O [Compound 62]
III: CCNc1nc(C#CC2CC2)nc2c1ncn2[C@H]1[C@H](O)[C@H](O)[C@@H]2C[C@@H]21 [Compound 39]
## Input // ascending sort on recorded EC50 Labels, ranked as asked.
## Output III, II, I

* * *

target: human adenosine A3 receptor (Homo sapiens (Human), UniProt P0DMS8); test: Intracellular cAMP levels (inhibition of forskolin-stimulated cAMP production); type: cell-based; details: maximal response as percentage of the response produced by 100 nM IB-MECA
experimental-endpoint: CAMP Efficacy (%)

Illustrative cases are given below, each with its answer.
[
  {
    "record-smiles": "CCNc1nc(C#CC2CC2)nc2c1ncn2[C@H]1[C@H](O)[C@H](O)[C@@H]2C[C@@H]21",
    "experimental-endpoint": "CAMP Efficacy (%)",
    "value-reported": 54.4
  },
  {
    "record-smiles": "CNC(=O)[C@@]12C[C@@H]1[C@@H](n1cnc3c(NCc4cc(Cl)ccc4OCc4cc(C)no4)cc(Cl)nc31)[C@H](O)[C@@H]2O",
    "experimental-endpoint": "CAMP Efficacy (%)",
    "value-reported": 103.26
  },
  {
    "record-smiles": "CCNc1cc(Cl)nc2c1ncn2[C@H]1[C@H](O)[C@H](O)[C@]2(C(=O)NC)C[C@H]12",
    "experimental-endpoint": "CAMP Efficacy (%)",
    "value-reported": 106.95
  }
]

a: CCNc1cc(C#CC2CC2)nc2c1ncn2[C@H]1[C@H](O)[C@H](O)[C@@H]2C[C@@H]21
b: CCNc1cc(C#N)nc2c1ncn2[C@H]1[C@H](O)[C@H](O)[C@]2(C(=O)NC)C[C@H]12
c: O[C@@H]1[C@H](O)[C@@H]2C[C@@H]2[C@H]1n1cnc2c(NCc3cc(Cl)ccc3Cl)cc(Cl)nc21
d: O[C@@H]1[C@H](O)[C@@H]2C[C@@H]2[C@H]1n1cnc2c(NCC(F)F)nc(C#CC3CC3)nc21
## Input Arrange the 4 entries by CAMP Efficacy (%) so the values rise. Answer by listing the labels in the requested order.
## Output a, c, d, b
(a: 1%, c: 38.22%, d: 65.1%, b: 104.76%)

* * *

target: human adenosine A3 receptor (Homo sapiens (Human)); experiment: Intracellular cAMP levels (inhibition of forskolin-stimulated cAMP production); assay type: cell-based; details: maximal response as percentage of the response produced by 100 nM IB-MECA
experimental-endpoint: CAMP Efficacy (%)

Known results for compounds:
[
  {
    "compound": "O[C@@H]1[C@H](O)[C@@H]2C[C@@H]2[C@H]1n1cnc2c(NCC(F)F)cc(Cl)nc21",
    "target-or-system": "human adenosine A3 receptor (Homo sapiens (Human))",
    "CAMP Efficacy (%)": 77.6
  },
  {
    "compound": "O[C@@H]1[C@H](O)[C@@H]2C[C@@H]2[C@H]1n1cnc2c(NCC(F)F)nc(Cl)nc21",
    "target-or-system": "human adenosine A3 receptor (Homo sapiens (Human))",
    "CAMP Efficacy (%)": 80.97
  }
]

a: CNC(=O)C12C[C@@H]1[C@@H](n1cnc3c(NCC4CC4)cc(Cl)nc31)[C@H](O)[C@@H]2O (stereo in doubt)
b: CCNc1c(C#N)c(Cl)nc2c1ncn2[C@H]1[C@H](O)[C@H](O)[C@@H]2C[C@@H]21
c: Cc1c(Cl)nc2c(ncn2[C@H]2[C@H](O)[C@H](O)[C@@H]3C[C@@H]32)c1NCC(F)F
## Input Thanks in advance: please rank these 3 entries by CAMP Efficacy (%), highest to lowest. Ranked list of labels, please, in the requested order.
## Output a, b, c

* * *

target: UniProtKB P0DMS8; test: Intracellular cAMP levels (inhibition of forskolin-stimulated cAMP production); conditions: CHO cells expressing human adenosine A3 receptors, forskolin 10 μM
pEC50: −log10 of the molar value.
experimental-endpoint: pEC50

[
  {
    "record-smiles": "O[C@@H]1[C@H](O)[C@@H]2C[C@@H]2[C@H]1n1cnc2c(NCc3cc(Cl)ccc3Cl)cc(Cl)nc21",
    "value-reported": 8.88
  },
  {
    "record-smiles": "O[C@@H]1[C@H](O)[C@@H]2C[C@@H]2[C@H]1n1cnc2c(NCC(F)F)nc(Cl)nc21",
    "value-reported": 8.88
  }
]
